Target: human Yes1 enzyme (Homo sapiens)
Construct: made in house
Sequence (P07947 whole entry): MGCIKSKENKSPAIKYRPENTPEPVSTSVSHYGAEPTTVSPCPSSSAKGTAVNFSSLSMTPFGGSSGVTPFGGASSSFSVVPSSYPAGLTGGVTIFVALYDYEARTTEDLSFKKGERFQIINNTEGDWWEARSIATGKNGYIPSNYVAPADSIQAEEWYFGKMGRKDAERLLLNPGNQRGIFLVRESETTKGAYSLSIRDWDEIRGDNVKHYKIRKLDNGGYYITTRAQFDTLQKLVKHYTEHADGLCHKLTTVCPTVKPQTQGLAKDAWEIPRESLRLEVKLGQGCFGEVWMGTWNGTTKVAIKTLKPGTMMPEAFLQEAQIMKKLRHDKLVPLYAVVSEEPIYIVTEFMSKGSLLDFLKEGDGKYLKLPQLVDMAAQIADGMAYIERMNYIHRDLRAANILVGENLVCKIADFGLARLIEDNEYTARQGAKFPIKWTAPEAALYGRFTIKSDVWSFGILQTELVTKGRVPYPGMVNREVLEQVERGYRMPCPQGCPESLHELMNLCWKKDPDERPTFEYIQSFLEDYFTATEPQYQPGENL
Test: Yes1 enzyme inhibitory activity (time-resolved fluorometry, biotinylated peptide phosphorylation)
Format: biochemical
Details: biotinylated peptide phosphorylation, read-out: YES_IC50
metric name: pIC50
Would you please state pIC50, meaning minus log10 of the concentration in mol/L, as a bare number?

molecule Cc1cc(Oc2cc(F)ccc2F)ncc1-n1ncc(C(=O)c2cc3cc(F)c(NS(C)(=O)=O)cc3[nH]2)c1N [Example 4-2-030] , pIC50 observed: 8.77

molecule Cc1cc(Oc2ccccc2F)ncc1-n1ncc(C(=O)c2cc3cc(F)c(NS(=O)(=O)c4cccc(Cl)n4)cc3[nH]2)c1N [Example 5-1-529] , pIC50 observed: 8.07

molecule Cc1cc(Oc2c(F)cccc2F)ncc1-n1ncc(C(=O)c2cc3cc(OCC(F)F)c(N4CCOCC4)cc3[nH]2)c1N [Example 4-1-016] , pIC50 observed: 8.68

molecule COc1cc2cc(C(=O)c3cnn(-c4cnc(Oc5ccccc5F)cc4C)c3N)[nH]c2cc1NS(=O)(=O)CC(=O)N1CCCC1 [Example 4-10-014] , pIC50 observed: 9.27

molecule Cc1cc(Oc2ccccc2F)ncc1-n1ncc(C(=O)c2cc3cc(OC(F)F)c(NS(=O)(=O)C4CCOCC4)cc3[nH]2)c1N [Example 5-1-401] , pIC50 observed: 8.60

molecule Cc1cc(Oc2cccc(F)c2F)ccc1-n1ncc(C(=O)c2cc3cc(Cl)c(NS(C)(=O)=O)cc3[nH]2)c1N [Example 4-2-078] , pIC50 observed: 8.23

* * *

Target: human Lck enzyme (Homo sapiens)
Construct: purchased Carna Biosciences, Inc. 08-170
Sequence (P06239 whole entry): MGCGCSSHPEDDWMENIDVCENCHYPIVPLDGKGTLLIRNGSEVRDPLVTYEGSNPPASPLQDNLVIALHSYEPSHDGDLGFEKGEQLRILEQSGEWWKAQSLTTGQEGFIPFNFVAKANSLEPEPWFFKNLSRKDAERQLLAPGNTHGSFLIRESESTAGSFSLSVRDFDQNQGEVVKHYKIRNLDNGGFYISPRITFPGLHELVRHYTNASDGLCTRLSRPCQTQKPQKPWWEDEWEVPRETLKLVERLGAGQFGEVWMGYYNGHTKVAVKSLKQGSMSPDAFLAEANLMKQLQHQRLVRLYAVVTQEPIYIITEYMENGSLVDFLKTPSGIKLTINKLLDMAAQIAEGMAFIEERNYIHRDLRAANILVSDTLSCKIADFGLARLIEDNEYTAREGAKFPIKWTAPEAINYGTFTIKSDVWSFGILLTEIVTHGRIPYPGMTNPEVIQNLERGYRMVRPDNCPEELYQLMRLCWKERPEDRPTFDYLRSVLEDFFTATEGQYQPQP
Experiment: Lck enzyme inhibitory activity (time-resolved fluorometry, biotinylated peptide phosphorylation)
Type: biochemical
Details: biotinylated peptide phosphorylation, read-out: LCK_IC50
Please go through the items and note down their IC50.
Give a bare numeral; the unit nM is implied.

compound Cc1cc2cc(C(=O)c3cnn(-c4c(C)cc(Oc5cccc(Cl)c5)cc4F)c3N)[nH]c2cc1NS(C)(=O)=O , IC50 observed: 110

compound Cc1cc2cc(C(=O)c3cnn(-c4cnc(Oc5ccccc5F)cc4C)c3N)[nH]c2cc1NS(=O)(=O)c1cncc(Cl)c1 , IC50 observed: 360

compound Cc1cc(-n2ncc(C(=O)c3cc4cc(C)c(N5C(=O)NC6(CCCCC6)C5=O)cc4[nH]3)c2N)ccc1Oc1ccccc1F , IC50 observed: 870

compound Cc1cc(Oc2ccccc2F)ccc1-n1ncc(C(=O)c2cc3cc(OCC(F)F)c(NS(=O)(=O)c4cccc(C#N)c4)cc3[nH]2)c1N , IC50 observed: 58

compound Cc1cc(Oc2ccccc2F)ccc1-n1ncc(C(=O)c2cc3cc(OC(F)F)c(NC4CN(S(C)(=O)=O)C4)cc3[nH]2)c1N , IC50 observed: 5.8

compound Cc1cc(-n2ncc(C(=O)c3cc4cc(C)c(N5C(=O)NC6(COC6)C5=O)cc4[nH]3)c2N)ccc1Oc1ccccc1F , IC50 observed: 71

compound CC(=O)N1CCC(c2cc3[nH]c(C(=O)c4cnn(-c5ccc(Oc6ccccc6F)cc5C)c4N)cc3cc2OC(F)F)CC1 , IC50 observed: 18

compound Cc1cc(Oc2ccccc2F)ccc1-n1ncc(C(=O)c2cc3cc(OC(F)F)c(N4CCCC4=O)cc3[nH]2)c1N , IC50 observed: 5.5

compound Cc1cc(Oc2c(F)cccc2F)ncc1-n1ncc(C(=O)c2cc3cc(OC(F)F)c(N4CCOC4=O)cc3[nH]2)c1N , IC50 observed: 2.7

compound Cc1cc2cc(C(=O)c3cnn(-c4ccc(Oc5ccccc5F)cc4C)c3N)[nH]c2cc1NS(=O)(=O)c1cccc(Cl)n1 , IC50 observed: 72

compound Cc1cc(Oc2cccc(F)c2F)ccc1-n1ncc(C(=O)c2cc3cc(F)c(NS(C)(=O)=O)cc3[nH]2)c1N , IC50 observed: 5.5

compound Cc1cc(Oc2ccccc2F)ccc1-n1ncc(C(=O)c2cc3cc(Cl)c(NS(C)(=O)=O)cc3[nH]2)c1N , IC50 observed: 4.3

compound Cc1cc2cc(C(=O)c3cnn(-c4cnc(Oc5ccccc5F)cc4C)c3N)[nH]c2cc1NS(=O)(=O)c1cccc(Cl)c1 , IC50 observed: 310
